Taken from patent US9481676B2.

Reported inhibition at 1 µM values follow for various compounds
- TARGET OR SYSTEM: human recombinant dopamine D2L receptor (Homo sapiens)
- Construct: expressed in transfected cells; host or cells: CHO cells
- Sequence (P14416 whole entry): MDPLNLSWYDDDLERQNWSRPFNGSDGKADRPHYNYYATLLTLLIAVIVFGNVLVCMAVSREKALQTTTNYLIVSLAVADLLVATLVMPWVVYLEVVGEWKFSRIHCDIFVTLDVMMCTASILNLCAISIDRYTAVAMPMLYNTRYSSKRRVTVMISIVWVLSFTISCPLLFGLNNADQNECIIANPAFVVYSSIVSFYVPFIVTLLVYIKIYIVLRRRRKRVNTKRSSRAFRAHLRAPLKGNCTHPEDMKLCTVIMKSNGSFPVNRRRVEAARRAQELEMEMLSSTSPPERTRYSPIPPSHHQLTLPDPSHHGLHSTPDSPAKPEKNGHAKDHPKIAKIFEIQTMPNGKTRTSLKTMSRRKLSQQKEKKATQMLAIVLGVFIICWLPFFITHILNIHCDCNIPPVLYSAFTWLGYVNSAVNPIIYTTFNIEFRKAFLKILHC
- PROCEDURE TEXT: Dopamine D2L radioligand binding ([3H]Spiperone)
- STATED CONDITIONS: compound at 1 μM; read-out: Dopamine (1 μM) D2L, percent inhibition of specific binding
- Method: To evaluate in radioligand binding assays the activity of compounds of the invention, human recombinant dopamine D2L receptor expressed in Chinese hamster ovary (CHO) cells (Grandy, D. K. et al. Proc. Natl. Acad. Sci. USA. 86:9762, 1989; Hayes, G. et al., Mol. Endocrinol. 6:920, 1992) in a modified Tris-HCl buffer (50 mM Tris-HCl, pH 7.4, 1.4 mM Ascorbic Acid, 0.001% BSA, 150 mM NaCl) was used. Compounds of the invention were incubated with 0.16 nM [^3H]Spiperone for 120 min. at 25° C. […]
QUANTITY MEASURED: inhibition at 1 µM

[[record]]
compound = "Cc1ccc2c(c1)c1c(n2CC(O)c2cccnc2)CCN(C)CC1 (stereo not drawn)"
target_or_system = "human recombinant dopamine D2L receptor (Homo sapiens)"
quantity_measured = "inhibition at 1 µM"
result = "12%"

[[record]]
compound = "C/C(=C\\n1c2c(c3cc(Cl)ccc31)CCN(C)CC2)c1ccccc1Cl"
target_or_system = "human recombinant dopamine D2L receptor (Homo sapiens)"
quantity_measured = "inhibition at 1 µM"
result = "16%"

[[record]]
compound = "Cc1ccc2c(c1)c1c(n2CCc2ccncc2)CCN(C)CC1"
target_or_system = "human recombinant dopamine D2L receptor (Homo sapiens)"
quantity_measured = "inhibition at 1 µM"
result = "30%"

[[record]]
compound = "COc1ccc(/C=C/n2c3c(c4cc(Cl)ccc42)CCN(C)CC3)cc1"
target_or_system = "human recombinant dopamine D2L receptor (Homo sapiens)"
quantity_measured = "inhibition at 1 µM"
result = "58%"

[[record]]
compound = "CN1CCc2c(n(CC(O)c3ccc(Cl)cc3)c3ccc(Cl)cc23)CC1 (stereo not drawn)"
target_or_system = "human recombinant dopamine D2L receptor (Homo sapiens)"
quantity_measured = "inhibition at 1 µM"
result = "37%"

[[record]]
compound = "CN1CCc2c(n(CC(O)c3ccc(F)cc3)c3ccc(Cl)cc23)CC1 (stereo not drawn)"
target_or_system = "human recombinant dopamine D2L receptor (Homo sapiens)"
quantity_measured = "inhibition at 1 µM"
result = "30%"

[[record]]
compound = "C/C(=C\\n1c2c(c3cc(Cl)ccc31)CCN(C)CC2)c1ccc(Cl)cc1"
target_or_system = "human recombinant dopamine D2L receptor (Homo sapiens)"
quantity_measured = "inhibition at 1 µM"
result = "34%"

[[record]]
compound = "CN1CCc2c(n(CC(=O)N3CCCC3)c3ccc(Cl)cc23)CC1"
target_or_system = "human recombinant dopamine D2L receptor (Homo sapiens)"
quantity_measured = "inhibition at 1 µM"
result = "2%"

[[record]]
compound = "Cc1ccc2c(c1)c1c(n2CC(=O)N(C)C2CCCCC2)CCN(C)CC1"
target_or_system = "human recombinant dopamine D2L receptor (Homo sapiens)"
quantity_measured = "inhibition at 1 µM"
result = "8%"


* * *

Reported inhibition at 1 µM values follow for various compounds
- TARGET OR SYSTEM: human recombinant dopamine D2L receptor (Homo sapiens)
- Construct: expressed in transfected cells; host or cells: CHO cells
- PROCEDURE TEXT: Dopamine D2L radioligand binding ([3H]Spiperone)
- STATED CONDITIONS: compound at 1 μM; read-out: Dopamine (1 μM) D2L, percent inhibition of specific binding
QUANTITY MEASURED: inhibition at 1 µM (%)

[[record]]
compound = "COc1ccc(/C=C/n2c3c(c4cc(Cl)ccc42)CCN(C)CC3)cc1F"
unit_tag = "%"
numeric_readout = 65

[[record]]
compound = "CN1CCc2c(n(CC(O)c3ccc(F)c(F)c3)c3ccc(Cl)cc23)CC1 (centres unmarked)"
unit_tag = "%"
numeric_readout = 47

[[record]]
compound = "CN1CCc2c(n(CCc3ccc(C(F)(F)F)nc3)c3ccc(Cl)cc23)CC1"
unit_tag = "%"
numeric_readout = 23

[[record]]
compound = "C/C(=C\\n1c2c(c3cc(C)ccc31)CCN(C)CC2)c1ccc(Cl)cc1Cl"
unit_tag = "%"
numeric_readout = 7

[[record]]
compound = "Cc1ccc2c(c1)c1c(n2/C=C/c2ccccc2)CCN(C)CC1"
unit_tag = "%"
numeric_readout = 68

[[record]]
compound = "C/C(=C\\n1c2c(c3cc(C)ccc31)CCN(C)CC2)c1cccnc1"
unit_tag = "%"
numeric_readout = 8

[[record]]
compound = "CN1CCc2c(n(CCc3ccccc3F)c3ccc(Cl)cc23)CC1"
unit_tag = "%"
numeric_readout = 1

[[record]]
compound = "COc1ccc(C#Cn2c3c(c4cc(Cl)ccc42)CCN(C)CC3)cc1F"
unit_tag = "%"
numeric_readout = 12

